Ref: PubChem BioAssay (NCI)

# Test system: HCC-2998 colon
# Experimental Details: NCI-60 one-dose screen, 48 h
# Assay Setup: 10 µM unless noted
This is part of a sample that, as a whole, favours compounds with a hit. Of some 83,000 tested, about 20% had one in any assay. Activity calls are given as the source filed them. Rule for the calls: active = growth percent below 10; inactive = the rest.
Labels: active, inactive

O=c1[nH]cnc2c1ccn2C1OC(CO)C(O)C1O (stereo not given): inactive
C#CC(OC(=O)N(C)C)(c1ccccc1)c1ccc(F)cc1 (stereo not given): inactive
CC(=O)O.CC(=O)O.O.[Fe]: inactive
Cn1cc(-c2noc(-c3cn(C)c4ncc(F)cc34)n2)c2cc(Cl)ccc21: inactive
C/C=C/C1OC23CCCCC2C(C#N)(C(=N)O3)C1(C#N)C#N (stereo not given): inactive
Fc1cc2[nH]ncc2c2c3c(c(-c4cn[nH]c4)nc12)CCCC3: inactive
Cc1ccc(S(=O)(=O)Oc2ccc([N+](=O)[O-])cc2[N+](=O)[O-])cc1: inactive
O=c1[nH]c(CN2CCN(c3cccc(Cl)c3)CC2)nc2cc(Cl)ccc12: inactive
C=C(C)[C@@H]1CC[C@]2(C(N)=O)CC[C@]3(C)[C@H](CC[C@@H]4[C@@]5(C)CC[C@H](O)C(C)(C)[C@@H]5CC[C@]43C)[C@@H]12: active
COc1cc2c(c(OC)c1OC)-c1cc(I)c(O)cc1[C@@H](NC(C)=O)CC2: inactive

----------
# System: HOP-92 NSCLC
# Experimental Details: NCI-60 one-dose screen, 48 h
# Assay Setup: 10 µM unless noted
# Method: Growth inhibition of the HOP-92 human Non-Small Cell Lung tumor cell line is measured as a screen for anti-cancer activity. Cells are grown in 96 well plates and exposed to the test compound for 48 hours. Compounds are tested at a single concentration, which is 10^-5 M for most compounds. The reported endpoint is percent growth (GI% or GIPRCNT), where numbers from 0 - 100% represent growth inhibition, and numbers from -100% - 0 represent cell death. […]
About 83,000 compounds went through this panel and 20% of them were active in at least one assay; those are over-represented in the sample as a whole. The source made the active and inactive calls. How the source made its calls: active means growth percent below 10; inactive means the rest.
Labels: active, inactive

O=C(Nc1ccccc1)Nc1ccc(C(=O)/C=C/c2ccc(N3CCCC3)cc2)cc1: inactive
COc1cc2c(c(OC)c1OC)-c1cc(I)c(O)cc1[C@@H](NC(C)=O)CC2: inactive
CCCCCCCCCCCCCCCCCCNC(=S)N/N=C/c1ccc(OC)c(OC)c1: inactive
Cc1ccc(Cn2c(O)c(N=NC(=O)c3ccc(S(N)(=O)=O)cc3)c3ccccc32)cc1: inactive
COc1cc(NN=C(c2ccc(O)cc2)c2ccc(O)cc2)c([N+](=O)[O-])cc1[N+](=O)[O-]: inactive
CC(C)C1=NOC(=O)C1=Cc1cn(-c2ccccc2)nc1-c1ccc(Cl)cc1: inactive
CO[C@H]1CC[C@@]2(C)C(=CC[C@H]3[C@@H]4C[C@H](O)C[C@@]4(C)CC[C@@H]32)C1: inactive
COc1ccc(C2NC(=O)C(C#N)c3c2sc2c(F)cccc32)cc1 (centres undefined): inactive
O=C(N/N=C\c1cc(Cl)ccc1O)N/N=C/c1cc(Cl)ccc1O: inactive
COc1cc(-c2cc(-c3ccc(Nc4ncnc5cc(Cl)ccc45)cc3)nc(N3CCCCC3)n2)cc(OC)c1OC: inactive
COc1ncc(-c2ccc3nc(N)n(-c4ccccc4C(F)(F)F)c(=O)c3c2)cc1S(=O)(=O)Nc1ccc(F)cc1F: inactive
O=C(Nc1cc(-c2cccnc2)nc(NCCCN2CCOCC2)n1)c1cc(Br)cc(C(F)(F)F)c1: inactive
CC[C@]12C=CCN3CC[C@@]4(c5ccc(OC)cc5N(C)[C@H]4[C@@](O)(C(=O)OC)[C@@H]1OC(=O)CCC(=O)O[C@H]1CC[C@H]4[C@@H]5CCC6=CC(=O)CC[C@@H]6[C@H]5CC[C@]14C)[C@@H]32: active
N#C/C(C(=O)c1ccccc1)=C1/C(=O)Nc2ccc(F)cc21: inactive
O=C(CCN1CCCCC1)c1ccc(Cl)cc1: inactive
CS(=O)(=O)c1cccnn1: inactive
C[C@H]1[C@H](C)CC[C@]2(C(=O)O)CC[C@]3(C)C(=CC[C@@H]4[C@@]5(C)C/C(=C/c6ccco6)C(=O)C(C)(C)[C@@H]5CC[C@]43C)[C@H]12: active
CNc1cc(C(=O)O)nc(NC)n1: inactive
CCN(CC)c1ccc(/C=C/C=C2\NC(=O)NC2=O)cc1: inactive
O=C(NCCCCCCCNC(=O)OCc1ccc2c(Cl)cc(Cl)c(O)c2n1)OCc1ccc2c(Cl)cc(Cl)c(O)c2n1: active
CCc1ccc(NC(=O)N[C@@H](Cc2cc(F)cc(F)c2)C(=O)N[C@@H]2C(=O)N3C[C@H](O)C[C@H]3C(=O)N3CCOC[C@H]3C(=O)N[C@@H](C)C(=O)N3C[C@H](C)C[C@H]3C(=O)O[C@H]2C)cc1: inactive
COc1ccc(NC(=O)Nc2ccc(-c3cccnc3)cc2N2CCC(CO)CC2)cc1: inactive
O=S(=O)(NCCCNc1nccc(-c2c(-c3cccc(F)c3)nc3occn23)n1)c1cccc2ccccc12: inactive
c1ccc(-c2nnc(-c3c[nH]c4ncccc34)s2)cc1: inactive
CC1(C)CC[C@]2(C(=O)O)CC[C@]3(C)[C@H](CC[C@@H]4[C@@]5(C)CCC(=O)C(C)(C)[C@@H]5CC[C@]43C)[C@H]2[C@H]1OC(=O)C(F)(F)F: active
COc1ccc(C2=C(c3cn(C)c4ccccc34)C(=O)OC2)cc1OC: inactive
Cc1nc(Cl)c2c(n1)N(C)c1ccc(Cl)cc1C(C)C2 (centres undefined): inactive
COc1cc2c(cc1OCCCN1CCN(CCCOc3cc4c(cc3OC)C(=O)N3C[C@H](F)C[C@H]3C=N4)CC1)N=C[C@@H]1C[C@@H](F)CN1C2=O: active
C=C(C)[C@@H]1CC[C@]2(C(=O)NCCNCCNCCN)CC[C@]3(C)[C@H](CC[C@@H]4[C@@]5(C)CCC(=O)C(C)(C)[C@@H]5CC[C@]43C)[C@@H]12: active
CCc1ccc(-c2ccc(COc3ccc(CC4SC(=O)NC4=O)cc3)cc2)cc1 (centres undefined): inactive
Cc1cnc(N)nc1OCCNC(=O)c1cccc(-c2ccc(S(=O)(=O)Nc3ccc4c(c3)N(C(=O)C3CC3)CCC4)cc2)c1: inactive
CCOC(=O)Nc1ccc2c(c1)/C(=N\NC(=S)NC)c1ccccc1-2: inactive
NC(=O)c1c(NC(=O)COC(=O)Cc2ccccc2F)sc2c1CCC2: inactive
CC(C)[C@H]1COC(=O)N1[C@@H]1C(=O)N([C@@H](CCC(=O)N2CCN(C3CCCC3)CC2)C(=O)N[C@@H]2CCCc3ccccc32)[C@@H]1/C=C/c1cccc(Cl)c1: inactive

----------
# Tested on: UO-31 renal
# Experimental Details: NCI-60 one-dose screen, 48 h
# Assay Setup: 10 µM unless noted
The panel holds about 83,000 compounds, 20% with a hit somewhere; the sample as a whole holds those more often. The source made the active and inactive calls. The calls were made as follows: active = growth percent below 10; inactive = the rest.
Labels: TRUE (active), FALSE (inactive)

CO[C@H]1CC[C@@]2(C)C(=CC[C@H]3[C@@H]4C[C@H](O)C[C@@]4(C)CC[C@@H]32)C1: FALSE
CCOC(=O)c1nn(C2CCCCO2)c2ccc(NC(=O)CSc3nc4ccccc4c(=O)[nH]3)cc12 (stereo not given): FALSE
Cn1cc(-c2nnc(-c3cn(C)c4ncccc34)s2)c2ccccc21: FALSE
CC1(C)NCCC[C@]2(C)[C@H]3C=CC4=C5C[C@](C)(CO)CC[C@]5(C)CC[C@@]4(C)[C@]3(C)CC[C@@H]12: TRUE
O=C(N/N=C1\c2ccccc2-c2cccc(C(=O)O)c21)c1ccc(O)cc1: FALSE
CCCCCC1CCCCN1C(=O)OCCCC (stereo not given): FALSE
CCN1c2ccccc2C(Cl)(c2ccc(N(C)C)cc2)c2ccccc21: FALSE
Cc1nn(-c2ccccc2)c(N2CCOCC2)c1-c1nc2ccc([N+](=O)[O-])cc2[nH]1: FALSE
O=C(NCc1ccc(Cn2c(=O)sn(-c3ccccc3)c2=O)cc1)OCc1ccc2c(Br)cc(Br)c(O)c2n1: TRUE
O=C(OCc1ccc2c(Cl)cc(Cl)c(O)c2n1)N1CCNCC1: FALSE
COc1ccc(/C=C/C=C\C(=O)c2ccc(-n3ccnc3)cc2)cc1: FALSE
O=C(O)CSCc1nnc2n(Cc3ccccc3)c(=O)c3c4c(sc3n12)CCCC4: FALSE
COc1cc2c(c(OC)c1OC)-c1cc(I)c(O)cc1[C@@H](NC(C)=O)CC2: FALSE
COc1cc(OC)c(/C=C/C(=O)c2c(N)cc(OC)cc2OC)c(OC)c1: FALSE
COc1ccc(NC(=O)Nc2ccc(-c3cccnc3)cc2N2CCC(CO)CC2)cc1: FALSE
CCOC(CNC(=O)c1cccc([N+](=O)[O-])c1)OCC: FALSE
Nc1cc(Cl)cc2cccnc12: FALSE
O=C(CCN1CCCCC1)c1ccc(Cl)cc1: FALSE
CCCCOC(=O)c1cccc([N+](=O)[O-])c1: FALSE
CCOc1ccc2sc(NS(=O)(=O)c3ccc(N)cc3)nc2c1: FALSE
CCOC(=O)c1c[nH]c2cc(OCC3CC3)c(OCC3CC3)cc2c1=O: FALSE
Cc1ccc(-c2cc(O)c(-c3ccc(C)cc3C)cc2O)c(C)c1: FALSE
O=C1CC(c2ccccc2)Cc2nc3ccc(Cl)cc3cc21 (stereo not given): FALSE
Cc1ccccc1OC(=O)c1cccc(Cl)c1: FALSE
O=C1Nc2ccccc2/C1=C/C(=O)c1ccc(N2CCOCC2)cc1: FALSE
COc1cc2c(c(OC)c1OC)-c1ccc(NNC(N)=S)c(=O)cc1[C@@H](NC(C)=O)CC2: FALSE
C[n+]1c2ccccc2nc2c(N)cc(N)cc21: FALSE
C=CCCCCCCCCC(=O)OC(C)C: FALSE
C[C@]12CCc3nc(Nc4ccccc4)sc3C1=CC[C@@H]1[C@@H]2CC[C@]2(C)/C(=N/NC(N)=S)CC[C@@H]12: FALSE
CCCCCCCCCN(CCCCCCCCC)C(C)C(=O)c1ccc2cc(Br)c3ccccc3c2c1 (stereo not given): FALSE
C[C@@H]1C[C@H]2C(=O)O[C@@H](C)[C@H](NC(=O)[C@H](Cc3cc(F)cc(F)c3)NC(=O)Nc3ccc(Cl)cc3F)C(=O)N3C[C@H](O)C[C@H]3C(=O)N3CCN(C)C[C@H]3C(=O)N[C@@H](C)C(=O)N2C1: FALSE
CC(C)=CC/C=C(/C)[C@H]1CC[C@]2(C)[C@@H]1CC[C@@H]1[C@@]3(C)CCC(=O)NC(C)(C)[C@@H]3CC[C@]12C: TRUE
CC(C)C1=NOC(=O)C1=Cc1cn(-c2ccccc2)nc1-c1cccc([N+](=O)[O-])c1: FALSE
Cc1cc(C)c(-c2cc(O)c(-c3c(C)cc(C)cc3C)cc2O)c(C)c1: FALSE
COc1ccc(/C=C(/C(=O)c2ccc(Cl)cc2)C(=O)C(F)(F)F)cc1: FALSE
Oc1ccc(N=Nc2nccs2)c(O)c1: FALSE
Cn1cc(-c2noc(-c3cn(C)c4ncc(Br)cc34)n2)c2cc(Cl)ccc21: FALSE
CN(C)CCOc1ccc(/C(=C(/CCCl)c2ccccc2)c2ccccc2)cc1: FALSE
CC1(C)CC[C@]2(C(=O)O)CC[C@]3(C)[C@H](CC[C@@H]4[C@@]5(C)CCC(=O)C(C)(C)[C@@H]5CC[C@]43C)[C@H]2[C@H]1OC(=O)C(F)(F)F: TRUE
O=C1COCCN1c1ccc(Nc2nc(Cl)nc(N3CCOCC3)n2)cc1: FALSE
